Below, each of the molecules is paired with its reported pIC50 value.
- tested.system: angiotensin II receptor
- protocol.description: rat adrenal receptor binding assay, displacement of radiolabeled (125I) angiotensin II
- condition.description: rat adrenal cortex membranes; 1 nM 125I-A II; 35 min at 25° C.; pH 7.4; read-out: IC50, Inhibition of 125I Angiotensin II Binding
Remember the convention: pIC50 equals -log10 of concentration in molar.

Guide cases for pIC50, answers given:
> print(dat)
                                   molecule  measured.parameter  reported.measurement
1  CCCc1nc2ccccc2n1Cc1ccc(C2=C(C(=O)O)CCC2)cc1 [Example 3]               pIC50                  4.70
2  CCCc1nc2ccccc2n1Cc1ccc(-c2ccccc2-c2nnn[nH]2)nc1 [Example 7]               pIC50                  4.62
3  FC(F)(F)c1nc2c(c(NCc3ccc(-c4ccccc4-c4nn[nH]n4)nc3)n1)CCCC2 [Example 9]               pIC50                  5.35
4  CCCc1nc2ccccc2n1CCC1CCN(c2ccccc2-c2nnn[nH]2)CC1 [Example 6]               pIC50                  4.52

Would you kindly look at the next entry?
Enquiry: Would you kindly share the measured pIC50 for CCCc1nc2c(C)cccc2n1Cc1ccc(-c2ccccc2-c2nnn[nH]2)nc1 [Example 8] ?
Return: 4.82

====

- tested.system: angiotensin II receptor
- protocol.description: rat adrenal receptor binding assay, displacement of radiolabeled (125I) angiotensin II
- condition.description: rat adrenal cortex membranes; 1 nM 125I-A II; 35 min at 25° C.; pH 7.4; read-out: IC50, Inhibition of 125I Angiotensin II Binding
- From the text: The high affinity of the compounds for the angiotensin II receptor was established using a rat adrenal receptor binding assay, measuring the displacement of radiolabeled angiotensin II from the receptor, described as follows: Anesthetize male Sprague-Dawley rats (300-400 g body weight) with CO2 and sacrifice by cervical dislocation. […] Calculate the quantities of hot A II and the cold A II needed and make the dilution. […]
Structures can show the parent of a compound that is named as a salt.
measured.parameter: IC50 (µM)
Please state the figure in µM; there is no need to write the unit.

> print(dat)
                                   molecule  unit.symbol  reported.measurement
1  CCCc1nc2ccccc2n1CC1=C(c2ccccc2-c2nnn[nH]2)CCC1           µM                   200
2  CCCc1nc2ccccc2n1Cc1ccc(C2CCCC2C(=O)O)cc1 (centres unmarked)           µM                    25

Enquiry: I have this molecule here, CCCc1nc2ccccc2n1CCN1CCN(c2ccccc2-c2nnn[nH]2)CC1 [Example 5, Potassium Salt] , and I need its recorded IC50.
Return: 43

Enquiry: Recorded IC50 for CCCc1nc2ccccc2n1CC1=C(c2cccc(-c3nnn[nH]3)c2)CCC1 , please?
Return: 73

Enquiry: Consider the molecule CCCc1nc2ccccc2n1Cc1ccc(-c2ncccc2C(=O)O)cc1 and give its measured IC50.
Return: 200
